Numbers sourced from patent US20230285405A1.

# Tested on: OC43
# assay.comment: Drug screening: OC43 nucleoprotein staining in infected A549-mRuby cells
# Format: cell-based, human beta coronavirus OC43
# test.conditions: Betacoronavirus 1, OC43, 96 h, 10 μM drug, MOI 0.3, 4 days; normalized to no-drug controls in the same plate; repeat #1; read-out: OC43_1: % staining of OC43 in screen repeat #1
Where a name gives a salt, the structure may show the parent alone.
# note: boundary value 20% maps to Condition not met; activity at 10 µM below it maps to Condition met

CCCC1O[C@@H]2C[C@H]3[C@@H]4CCC5=CC(=O)C=C[C@]5(C)[C@H]4[C@@H](O)C[C@]3(C)[C@]2(C(=O)CO)O1 (stereo partly drawn) [Budesonide]	Condition not met
CCCCCCCC(=O)N[C@H](CN1CCCC1)[C@H](O)c1ccc2c(c1)OCCO2	Condition not met
CCCCOC(=O)c1ccc(N)cc1	Condition met
CCN(CC)CCOCCOC(=O)C1(c2ccccc2)CCCC1.O=C(O)CC(O)(CC(=O)O)C(=O)O [Pentoxyverine Citrate]	Condition met
COc1cccc(CCc2ccccc2OCC(CN(C)C)OC(=O)CCC(=O)O)c1 (stereo not drawn) [Sarpogrelate hydrochloride]	Condition not met

Q. Decide: activity at 10 µM of CN1CCC(=C2c3ccccc3C=Cc3ccccc32)CC1 [Cyproheptadine HCl] strictly below 20%?
A. Condition not met

Q. Determine whether this compound shows activity at 10 µM lower than 20% (ties excluded): CN(C)CCCN1c2ccccc2CCc2ccccc21.O [Imipramine HCl]
A. Condition met

Q. Hello, is activity at 10 µM of the following compound strictly smaller than 20%? CCN(CC)CCCC(C)Nc1ccnc2cc(Cl)ccc12 (stereo not drawn) [Chloroquine Phosphate]
A. Condition met
